Origin of measurements: ChEMBL document CHEMBL1135300

Target of assay: Steryl-sulfatase (Homo sapiens)
Protocol: In vitro inhibition of estrone sulfatase at 1 mM.
inhibition: recorded values
Reported endpoint: inhibition

Compound: Cc1ccc(OS(N)(=O)=O)cc1
Reported endpoint: inhibition
Measured: 27.4%
//
Compound: N#Cc1cccc(OS(N)(=O)=O)c1
Reported endpoint: inhibition
Measured: 84.3%
//
Compound: NS(=O)(=O)Oc1ccc(F)cc1
Reported endpoint: inhibition
Measured: 37%
//
Compound: NS(=O)(=O)Oc1cccc(F)c1
Reported endpoint: inhibition
Measured: 79.6%
//
Compound: NS(=O)(=O)Oc1ccc(I)cc1
Reported endpoint: inhibition
Measured: 66%
//
Compound: CCCCCCCCCOS(C)(=O)=O
Reported endpoint: inhibition
Measured: 28%
//
Compound: Cc1cccc(OS(N)(=O)=O)c1
Reported endpoint: inhibition
Measured: 39.5%
//
Compound: NS(=O)(=O)Oc1ccc([N+](=O)[O-])cc1
Reported endpoint: inhibition
Measured: 82.5%
//
Compound: NS(=O)(=O)OCC(Cl)Cl
Reported endpoint: inhibition
Measured: 30%
//
Compound: NS(=O)(=O)Oc1ccccc1 [PHENYLSULFAMATE]
Reported endpoint: inhibition
Measured: 29.7%
//
Compound: NS(=O)(=O)Oc1ccc(Br)cc1
Reported endpoint: inhibition
Measured: 50.8%
//
Compound: NS(=O)(=O)OCC(Cl)(Cl)Cl
Reported endpoint: inhibition
Measured: 60%
//
Compound: NS(=O)(=O)OCCCl
Reported endpoint: inhibition
Measured: 15%
//
Compound: NS(=O)(=O)Oc1ccc(Cl)cc1
Reported endpoint: inhibition
Measured: 37.6%
//
Compound: NS(=O)(=O)Oc1cccc(Cl)c1
Reported endpoint: inhibition
Measured: 62%
